Recorded values, source patent US4202876A.

# Procedure Details: Whole-body excretion studies in rats after oral administration (whole-body counts, bi-exponential fit)
# Type: in vivo, rat
# Condition Info: Retention(t)=ae^-xt+be^-yt+c
Quantity Kind: x (rate constant of first component) (day⁻¹)

compound=C[C@H](CCC[75Se]CC(=O)O)[C@H]1CC[C@H]2[C@@H]3CC[C@@H]4C[C@H](O)CC[C@]4(C)[C@H]3CC[C@]12C quantity_unit=day⁻¹ result_number=2.29
compound="CC([75Se]CC(=O)NCC(=O)O)[C@H]1CC[C@H]2[C@@H]3[C@H](O)C[C@@H]4C[C@H](O)CC[C@]4(C)[C@H]3C[C@H](O)[C@]12C (stereo partly shown) [vi, Glyco-22-[^75 Se]selenacholic acid]" quantity_unit=day⁻¹ result_number=1.54
compound=C[C@H](CC[75Se]CCC(=O)O)[C@H]1CC[C@H]2[C@@H]3[C@H](O)C[C@@H]4C[C@H](O)CC[C@]4(C)[C@H]3C[C@H](O)[C@]12C quantity_unit=day⁻¹ result_number=2.77
compound=C[C@H](CC[75Se]CCC(=O)O)[C@H]1CC[C@H]2[C@@H]3[C@H](O)C[C@@H]4C[C@H](O)CC[C@]4(C)[C@H]3CC[C@]12C quantity_unit=day⁻¹ result_number=2.31
compound=C[C@H](CC[123Te]CC(=O)O)[C@H]1CC[C@H]2[C@@H]3CC[C@@H]4C[C@H](O)CC[C@]4(C)[C@H]3C[C@H](O)[C@]12C quantity_unit=day⁻¹ result_number=2.26
compound=C[C@H](C[75Se]CC(=O)O)[C@H]1CC[C@H]2[C@@H]3CC[C@@H]4C[C@H](O)CC[C@]4(C)[C@H]3C[C@H](O)[C@]12C quantity_unit=day⁻¹ result_number=2.29
compound="CC([75Se]CC(=O)O)[C@H]1CC[C@H]2[C@@H]3[C@H](O)C[C@@H]4C[C@H](O)CC[C@]4(C)[C@H]3C[C@H](O)[C@]12C (stereo partly shown)" quantity_unit=day⁻¹ result_number=2.52
